System: SW1783 (Low Grade Glioma)
Experiment: combination Emax (second highest fraction inhibited in the dose matrix, 72 h); higher = more inhibition; extreme values may be limits of the assay
result_type: combination Emax

Some compounds with known combination Emax results, for comparison:
compound	test_result
Cc1cc2ncnn2cc1Nc1ncc2c(n1)n(C1CCOCC1)c(=O)n2C [AZD7648] + CN(C)CCCOc1ccc(-c2ccc3ncc4c(c3c2)n(C2CCOCC2)c(=O)n4C)cn1 [AZD0156] (first compound max 10 µM, 7x7, partner max 1 µM)	0.277
CN(CCO)CC[C@H](CSc1ccccc1)Nc1ccc(S(=O)(=O)NC(=O)c2ccc(N3CCC([C@@H](O)c4ccccc4-c4ccc(Cl)cc4)CC3)cc2)cc1S(=O)(=O)C(F)(F)F [AZD4320] + Cn1cnc2c(F)c(Nc3ccc(Br)cc3Cl)c(C(=O)NOCCO)cc21 [Selumetinib] (first compound max 1 µM, 7x7, partner max 3 µM)	0.706

Give SW1783 (Low Grade Glioma) combination Emax for CC1(C)CCC(CN2CCN(c3ccc(C(=O)NS(=O)(=O)c4ccc(NCC5CCOCC5)c([N+](=O)[O-])c4)c(Oc4cnc5[nH]ccc5c4)c3)CC2)=C(c2ccc(Cl)cc2)C1 [Venetoclax] + C=CCn1c(=O)c2cnc(Nc3ccc(N4CCN(C)CC4)cc3)nc2n1-c1cccc(C(C)(C)O)n1 [AZD1775] (first compound max 1 µM, partner max 1 µM)
0.307

----------
Quick reference: Bliss excess of the listed items.
Test system: NCI-H1299 (Non-Small Cell Lung Carcinoma)
Assay: Bliss excess, mean over the matrix (fraction); higher = more synergy
Number only, please.

Worked cases, answers included:
compound	Bliss excess
N#Cc1cnc(Nc2cc(NC[C@H]3CNCCO3)c(C(F)(F)F)cn2)cn1 [SRA737] + Nc1ccn([C@@H]2O[C@H](CO)[C@@H](O)C2(F)F)c(=O)n1 [Gemcitabine] (first compound max 10 µM, 7x7, partner max 0.3 µM)	0.0831
CN(CCO)CC[C@H](CSc1ccccc1)Nc1ccc(S(=O)(=O)NC(=O)c2ccc(N3CCC([C@@H](O)c4ccccc4-c4ccc(Cl)cc4)CC3)cc2)cc1S(=O)(=O)C(F)(F)F [AZD4320] + C[C@@H](Nc1cc(F)cc(F)c1)c1cc(C(=O)N(C)C)cc2c(=O)cc(N3CCOCC3)oc12 [AZD8186] (first compound max 1 µM, 7x7, partner max 3 µM)	0.0118
Cc1c2c(nn1C)CSCc1cc(n(C)n1)CSc1cc(c3ccccc3c1)OCCCc1c(C(=O)O)n(C)c3c-2c(Cl)ccc13 [AZD5991] + Nc1ccn([C@@H]2O[C@H](CO)[C@@H](O)C2(F)F)c(=O)n1 [Gemcitabine] (first compound max 1 µM, 7x7, partner max 0.3 µM)	0.006

Would you kindly look at the next entry?
Would you mind telling me what Bliss excess value was observed for COc1cccc(OCCCN)c1-c1cc(Nc2cnc(C#N)cn2)n[nH]1 [Prexasertib] + C[C@@H]1COCCN1C2=NC(=NC(=C2)C3(CC3)[S@](=N)(=O)C)C4=C5C=CNC5=NC=C4 [AZD6738] (first compound max 1 µM, 7x7, partner max 10 µM) ?
-0.0013

----------
Tested on: NCI-H1781 (Lung Adenocarcinoma)
Test: Bliss excess, mean over the matrix (fraction); higher = more synergy
result_type: Bliss excess
Answer using only a numeral; do not append any unit.

See these solved cases before continuing.
compound	Bliss excess
C[C@@H](c1ccc2nccn2c1)n1nnc2ncc(-c3cnn(C)c3)nc21 [Savolitinib] + Cc1c2c(nn1C)CSCc1cc(n(C)n1)CSc1cc(c3ccccc3c1)OCCCc1c(C(=O)O)n(C)c3c-2c(Cl)ccc13 [AZD5991] (first compound max 1 µM, 7x7, partner max 1 µM)	-0.0293
Cc1c2c(nn1C)CSCc1cc(n(C)n1)CSc1cc(c3ccccc3c1)OCCCc1c(C(=O)O)n(C)c3c-2c(Cl)ccc13 [AZD5991] + C[C@@H](Nc1cc(F)cc(F)c1)c1cc(C(=O)N(C)C)cc2c(=O)cc(N3CCOCC3)oc12 [AZD8186] (first compound max 1 µM, 7x7, partner max 3 µM)	0.0182
NC1(C(=O)N[C@@H](CCO)c2ccc(Cl)cc2)CCN(c2ncnc3[nH]ccc23)CC1 [Capivasertib] + CC(=O)c1c(C)c2cnc(Nc3ccc(N4CCNCC4)cn3)nc2n(C2CCCC2)c1=O [Palbociclib] (first compound max 10 µM, 7x7, partner max 10 µM)	-0.0326

Turning to the following compound.
Bench note: what Bliss excess did COc1nnc2ccc(N3CCC(c4ccc(OCCN5CCN(C)C(=O)[C@H]5C)cc4)CC3)nn12 [AZD5153] + CCN(CCO)CCCOc1ccc2c(Nc3cc(CC(=O)Nc4cccc(F)c4)[nH]n3)ncnc2c1 [AZD2811] (first compound max 1 µM, 7x7, partner max 1 µM) show?
-0.129
